Molecular target: T1, orthogonal hCD122 receptor (hoRb), hCD122 with H133D and Y134F (human, UniProt P14784 27-550)
T1 sequence: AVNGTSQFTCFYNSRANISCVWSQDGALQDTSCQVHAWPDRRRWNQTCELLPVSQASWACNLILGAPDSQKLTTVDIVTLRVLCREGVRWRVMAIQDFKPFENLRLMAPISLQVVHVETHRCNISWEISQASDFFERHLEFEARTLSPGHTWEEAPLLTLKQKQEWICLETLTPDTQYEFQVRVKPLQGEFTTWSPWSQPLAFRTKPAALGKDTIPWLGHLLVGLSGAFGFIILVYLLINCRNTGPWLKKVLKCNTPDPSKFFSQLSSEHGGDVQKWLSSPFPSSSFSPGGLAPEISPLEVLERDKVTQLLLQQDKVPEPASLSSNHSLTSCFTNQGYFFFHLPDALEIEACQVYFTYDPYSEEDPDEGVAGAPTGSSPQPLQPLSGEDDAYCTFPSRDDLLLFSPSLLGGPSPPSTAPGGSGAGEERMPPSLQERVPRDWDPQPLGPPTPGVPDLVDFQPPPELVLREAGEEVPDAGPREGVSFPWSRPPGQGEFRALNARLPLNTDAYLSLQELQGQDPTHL
Assay: cell-based or functional assay
property_label: 3F8 Ortho Proliferation Signal 1:10 (cts/min)

binder	obs_value
L18V, SQVLKA (ligand) APTSSSTKKTQLQLSQLVVLLKAILNGINNYKNPKLTRMLTFKFYMPKKATELKHLQCLEEELKPLEEVLNLAQSKNFHLRPRDLISNINVIVLELKGSETTFMCEYADETATIVEFLNRWITFCQSIISTLT	29500
R38G, SQVLKA (ligand) APTSSSTKKTQLQLSQLLVLLKAILNGINNYKNPKLTGMLTFKFYMPKKATELKHLQCLEEELKPLEEVLNLAQSKNFHLRPRDLISNINVIVLELKGSETTFMCEYADETATIVEFLNRWITFCQSIISTLT	32100
R81D, SQVLKA (ligand) APTSSSTKKTQLQLSQLLVLLKAILNGINNYKNPKLTRMLTFKFYMPKKATELKHLQCLEEELKPLEEVLNLAQSKNFHLDPRDLISNINVIVLELKGSETTFMCEYADETATIVEFLNRWITFCQSIISTLT	30000
SQVLKF (ligand) APTSSSTKKTQLQLSQLLVLLKFILNGINNYKNPKLTRMLTFKFYMPKKATELKHLQCLEEELKPLEEVLNLAQSKNFHLRPRDLISNINVIVLELKGSETTFMCEYADETATIVEFLNRWITFCQSIISTLT	48500
M39V, SQVLKA (ligand) APTSSSTKKTQLQLSQLLVLLKAILNGINNYKNPKLTRVLTFKFYMPKKATELKHLQCLEEELKPLEEVLNLAQSKNFHLRPRDLISNINVIVLELKGSETTFMCEYADETATIVEFLNRWITFCQSIISTLT	22900

[P] H55Y, SQVLKA (ligand) APTSSSTKKTQLQLSQLLVLLKAILNGINNYKNPKLTRMLTFKFYMPKKATELKYLQCLEEELKPLEEVLNLAQSKNFHLRPRDLISNINVIVLELKGSETTFMCEYADETATIVEFLNRWITFCQSIISTLT
[Q] Q126C, SQVLKA (ligand) APTSSSTKKTQLQLSQLLVLLKAILNGINNYKNPKLTRMLTFKFYMPKKATELKHLQCLEEELKPLEEVLNLAQSKNFHLRPRDLISNINVIVLELKGSETTFMCEYADETATIVEFLNRWITFCCSIISTLT
[R] L18Y, SQVLKA (ligand) APTSSSTKKTQLQLSQLYVLLKAILNGINNYKNPKLTRMLTFKFYMPKKATELKHLQCLEEELKPLEEVLNLAQSKNFHLRPRDLISNINVIVLELKGSETTFMCEYADETATIVEFLNRWITFCQSIISTLT
[ask] Would you mind ranking these binders by ascending 3F8 Ortho Proliferation Signal 1:10? Reply with the item labels sorted in the order that was asked for.
[reply] Q, P, R
